// data source = patent US5374641A

biological target: thromboxane synthetase (Homo sapiens, UniProt P24557); assay: Test Example 5: Thromboxane synthetase inhibiting activity (human platelet microsomal fraction, RIA); type: biochemical; conditions: PGH2, room temperature, 60 seconds, read-out: Inhibition of thromboxane synthetase IC50
Sequence (P24557 whole entry): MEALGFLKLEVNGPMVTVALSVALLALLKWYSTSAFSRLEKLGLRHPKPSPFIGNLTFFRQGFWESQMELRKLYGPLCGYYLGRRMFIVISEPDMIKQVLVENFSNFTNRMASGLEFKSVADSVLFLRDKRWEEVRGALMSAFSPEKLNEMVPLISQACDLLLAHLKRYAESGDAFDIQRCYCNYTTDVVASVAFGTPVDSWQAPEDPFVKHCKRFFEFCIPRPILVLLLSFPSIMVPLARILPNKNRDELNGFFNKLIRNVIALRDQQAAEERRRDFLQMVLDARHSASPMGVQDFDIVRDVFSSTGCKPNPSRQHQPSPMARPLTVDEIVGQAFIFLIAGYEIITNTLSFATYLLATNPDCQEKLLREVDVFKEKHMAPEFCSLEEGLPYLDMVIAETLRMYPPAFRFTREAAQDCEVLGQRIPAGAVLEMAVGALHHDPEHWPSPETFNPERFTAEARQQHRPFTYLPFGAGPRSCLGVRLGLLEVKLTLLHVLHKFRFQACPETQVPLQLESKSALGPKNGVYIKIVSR
pIC50: −log10 of the molar value.
# pIC50 per record follows
REPORTED_METRIC: pIC50

{"columns": ["COMPOUND", "REPORTED_METRIC", "RESULT_NUMBER"],
 "data": [
  ["O=C(O)c1ccc(CC(NS(=O)(=O)c2ccc(Cl)cc2)c2cccnc2)cc1 (stereo not shown)", "pIC50", 6.00],
  ["O=C(O)c1ccc(CCC(NS(=O)(=O)c2ccc(Cl)cc2)c2cccnc2)cc1 (stereo not shown)", "pIC50", 5.82],
  ["O=C(O)COc1ccc(CC(CNS(=O)(=O)c2ccc(Cl)cc2)c2cccnc2)cc1 (stereo not shown)", "pIC50", 5.62],
  ["O=C(O)/C=C/c1ccc(CC(NS(=O)(=O)c2ccc(Cl)cc2)c2cccnc2)cc1 (stereo not shown)", "pIC50", 4.44],
  ["CCOC(=O)Oc1ccc(CC(CNS(=O)(=O)c2ccc(Cl)cc2)c2cccnc2)cc1 (stereo not shown)", "pIC50", 4.55],
  ["O=C(O)COc1ccc(CC(CCNS(=O)(=O)c2ccc(Cl)cc2)c2cccnc2)cc1 (stereo not shown)", "pIC50", 7.52],
  ["O=C(O)COc1ccc(CC(NS(=O)(=O)c2ccccc2)c2cccnc2)cc1 (stereo not shown)", "pIC50", 5.05],
  ["O=C(O)COc1ccc(C(CNS(=O)(=O)c2ccc(Cl)cc2)Cc2cccnc2)cc1 (stereo not shown)", "pIC50", 5.29],
  ["O=C(O)CCc1ccc(CC(NS(=O)(=O)c2ccc(Cl)cc2)c2cccnc2)cc1 (stereo not shown)", "pIC50", 4.52],
  ["O=C(O)COc1ccc(CCC(NS(=O)(=O)c2ccc(Cl)cc2)c2cccnc2)cc1 (stereo not shown)", "pIC50", 6.03],
  ["CCOC(=O)Oc1ccc(C(CNS(=O)(=O)c2ccc(Cl)cc2)Cc2cccnc2)cc1 (stereo not shown)", "pIC50", 5.66],
  ["O=C(O)Cc1ccc(CC(NS(=O)(=O)c2ccc(Cl)cc2)c2cccnc2)cc1 (stereo not shown)", "pIC50", 5.66],
  ["Cc1ccc(S(=O)(=O)NC(Cc2ccc(OCC(=O)O)cc2)c2cccnc2)cc1 (stereo not shown)", "pIC50", 4.68]
]}
